- Test system: U2OS
- procedure details: Multiplex assay against U2OS
- Assay type: toxicity, cell-based
- experimental context: human, 48 h, 10 µM, compound concentration 10 uM, replicate 1
Can you tell me Population Healthy Nuclei (%) for the items I'm about to list?
Number only, in %; omit the unit.

Exercise: What does the record list as Population Healthy Nuclei (%) for O=C(O)Cc1ccccc1Nc1c(Cl)cccc1Cl ?
Solution: 73

Exercise: What does the record list as Population Healthy Nuclei (%) for Cc1ccccc1C(=O)Nc1ccc(C(=O)N2CCCC(N(C)C)c3ccccc32)cc1.Cl (configuration not stated) ?
Solution: 43

Exercise: What does the record list as Population Healthy Nuclei (%) for Cc1nc2ccc(Oc3ccc(F)cc3)cc2c(=O)n1C[C@H]1CCCN(C(C)C)C1.Cl ?
Solution: 54

Exercise: What does the record list as Population Healthy Nuclei (%) for CCCC(CCC)C(=O)O ?
Solution: 71

Exercise: What does the record list as Population Healthy Nuclei (%) for CC1(COc2ccc3c(c2)ncn3-c2ccc3cccc(N4CCC(N)CC4)c3n2)COC1 ?
Solution: 11

Exercise: What does the record list as Population Healthy Nuclei (%) for N[C@@]1(C(=O)O)CO[C@H]2[C@H](C(=O)O)[C@H]21 ?
Solution: 68

Exercise: What does the record list as Population Healthy Nuclei (%) for O=C(O)c1cc2ccccc2c(Cc2c(O)c(C(=O)O)cc3ccccc23)c1O ?
Solution: 77

Exercise: What does the record list as Population Healthy Nuclei (%) for CCCN1CCC[C@@H]2Cc3n[nH]cc3C[C@H]21.Cl [QUINPIROLE HYDROCHLORIDE] ?
Solution: 78

Exercise: What does the record list as Population Healthy Nuclei (%) for CCCn1c(=O)c2[nH]c(C3CCCC3)nc2n(CCC)c1=O ?
Solution: 62

Exercise: What does the record list as Population Healthy Nuclei (%) for CC(C)(C)c1ccc(S(=O)(=O)Nc2ccc(Cl)cc2C(=O)c2cc[n+]([O-])cc2)cc1 ?
Solution: 75

Exercise: What does the record list as Population Healthy Nuclei (%) for O=C(NCC(=O)N1CC[C@H](N[C@H]2CC[C@@](O)(c3ccc(-c4ncccn4)cn3)CC2)C1)c1cccc(C(F)(F)F)c1 ?
Solution: 61

Exercise: What does the record list as Population Healthy Nuclei (%) for C[C@@H]1C[C@H]2[C@@H]3CCC4=CC(=O)C=C[C@]4(C)[C@@]3(F)[C@@H](O)C[C@]2(C)[C@@]1(O)C(=O)CO ?
Solution: 77

Exercise: What does the record list as Population Healthy Nuclei (%) for COc1cc(NC(=O)CCN2CCC(OC(=O)Nc3ccccc3-c3ccccc3)CC2)c(Cl)cc1CNC[C@H](O)c1ccc(O)c2[nH]c(=O)ccc12 ?
Solution: 39

Exercise: What does the record list as Population Healthy Nuclei (%) for Cc1ccc(/C(=C\CN2CCCC2)c2ccccn2)cc1 ?
Solution: 65

Exercise: What does the record list as Population Healthy Nuclei (%) for COc1ccc2c(c1)C(C(=O)N(Cc1ccc(N(C)C)cc1)c1ccc(C(C)C)cc1)CCC2.Cl (configuration not stated) ?
Solution: 47

Exercise: What does the record list as Population Healthy Nuclei (%) for COc1cc(C(=O)N(CCCc2ccccc2)Cc2ccc(CC(=O)O)cc2)cc(OC)c1C ?
Solution: 75

Exercise: What does the record list as Population Healthy Nuclei (%) for C[C@H](NC(=O)c1c(C(F)F)nn(C)c1Oc1cccc(C(F)(F)F)c1)c1ccc(C(=O)O)cc1 ?
Solution: 73

Exercise: What does the record list as Population Healthy Nuclei (%) for COc1c(C)cc(NC(=O)c2nn(Cc3ccc(F)cc3)c3c2CN(C(=O)c2ccc[nH]2)C[C@]3(C)C(N)=O)cc1C ?
Solution: 24

Exercise: What does the record list as Population Healthy Nuclei (%) for CSc1ccccc1N1CCN(CCCCCC(=O)NC2CCCc3ccccc32)CC1.Cl (configuration not stated) ?
Solution: 18

Exercise: What does the record list as Population Healthy Nuclei (%) for CN(C)CCCc1cc(C(=O)Nc2ccc(-c3ccncc3)cc2)ccc1O.Cl.Cl ?
Solution: 61

Exercise: What does the record list as Population Healthy Nuclei (%) for Cc1ccc(C(C)(O)c2nc3ccccc3s2)c(C)c1 (configuration not stated) ?
Solution: 69

Exercise: What does the record list as Population Healthy Nuclei (%) for Cl.Clc1ccc2nsnc2c1NC1=NCCN1 [TIZANIDINE HYDROCHLORIDE] ?
Solution: 75

These measurements were taken from ChEMBL document CHEMBL5058577.
